Source of measurements: paper PMC12133982

- study target: HLA-C0602 (Homo sapiens, UniProt P10321, A176E/A330V/C350S/L171W/L180W/L218V/M285V/M309V/M331V/N104K/P208H/Q277E/Q291P/R121W/S101N/S123Y/S297R/T329A/T363A/V319A/V328M)
- assay text: Competitive peptide binding assay, CIR-C0602
Peptide text beside a SMILES is read from it.
attribute measured: IC50

* CSCC[C@H](NC(=O)[C@H](CO)NC(=O)[C@H](CCCNC(=N)N)NC(=O)[C@@H](NC(=O)[C@H](CCCNC(=N)N)NC(=O)[C@H](C)NC(=O)[C@@H](N)Cc1ccccc1)[C@@H](C)O)C(=O)N[C@@H](Cc1c[nH]c2ccccc12)C(=O)N[C@@H](CO)C(=O)N[C@@H](Cc1ccccc1)C(=O)O [Epitope M71] (H-FARTRSMWSF-OH; N-terminus and C-terminus assumed) | > 15 µM
* CC[C@H](C)[C@H](NC(=O)[C@@H](NC(=O)CNC(=O)[C@H](CC(N)=O)NC(=O)[C@H](CO)NC(=O)[C@H](CC(=O)O)NC(=O)[C@H](C)NC(=O)[C@@H](N)CCSC)[C@@H](C)O)C(=O)N[C@H](C(=O)N[C@H](C(=O)O)C(C)C)[C@@H](C)O [Epitope M48] (H-MADSNGTITV-OH; N-terminus and C-terminus assumed) | > 15 µM
* CC[C@H](C)[C@H](N)C(=O)N[C@H](C(=O)N[C@@H](CC(N)=O)C(=O)N[C@@H](CO)C(=O)N[C@H](C(=O)N[C@@H](CC(C)C)C(=O)N[C@@H](CC(C)C)C(=O)N[C@@H](Cc1ccccc1)C(=O)N[C@@H](CC(C)C)C(=O)O)C(C)C)C(C)C [Epitope M7] (H-IVNSVLLFL-OH; N-terminus and C-terminus assumed) | 5 to 15 µM
* CC[C@H](C)[C@H](NC(=O)[C@H](C)NC(=O)CNC(=O)[C@@H](NC(=O)[C@H](Cc1ccc(O)cc1)NC(=O)[C@@H](NC(=O)[C@@H](N)CC(C)C)[C@@H](C)O)[C@@H](C)O)C(=O)N[C@@H](CCCCN)C(=O)N[C@@H](CC(C)C)C(=O)O [Epitope M15] (H-LTYTGAIKL-OH; N-terminus and C-terminus assumed) | < 5 µM
* C[C@H](NC(=O)[C@H](CO)NC(=O)[C@H](C)NC(=O)[C@H](CO)NC(=O)[C@@H]1CCCN1C(=O)[C@H](C)NC(=O)[C@@H](N)Cc1ccccc1)C(=O)N[C@@H](Cc1ccccc1)C(=O)N[C@@H](Cc1ccccc1)C(=O)O [Epitope M16] (H-FAPSASAFF-OH; N-terminus and C-terminus assumed) | > 15 µM
* CC[C@H](C)[C@H](NC(=O)[C@@H]1CCCN1C(=O)[C@H](CCSC)NC(=O)[C@H](CC(C)C)NC(=O)[C@H](CC(C)C)NC(=O)[C@H](CO)NC(=O)[C@H](Cc1ccc(O)cc1)NC(=O)[C@@H](N)Cc1ccc(O)cc1)C(=O)N[C@@H](CC(C)C)C(=O)O [Epitope M95] | > 15 µM
* CC[C@H](C)[C@H](NC(=O)[C@H](CCC(N)=O)NC(=O)[C@H](CC(C)C)NC(=O)[C@H](C)NC(=O)[C@H](C)N)C(=O)N1CCC[C@H]1C(=O)N[C@@H](Cc1ccccc1)C(=O)N[C@@H](C)C(=O)N[C@@H](CCSC)C(=O)O [Epitope M66] (H-AALQIPFAM-OH; N-terminus and C-terminus assumed) | 5 to 15 µM
* CC(C)[C@H](NC(=O)[C@H](Cc1ccc(O)cc1)NC(=O)[C@H](CCC(=O)O)NC(=O)[C@H](Cc1ccccc1)NC(=O)[C@@H](N)[C@@H](C)O)C(=O)N[C@@H](CO)C(=O)N[C@@H](CCC(N)=O)C(=O)N1CCC[C@H]1C(=O)N[C@@H](Cc1ccccc1)C(=O)O [Epitope M180] (H-TFEYVSQPF-OH; N-terminus and C-terminus assumed) | > 15 µM

# next molecule below
Name the recorded IC50 of the item CC[C@H](C)[C@H](N)C(=O)N[C@@H](C)C(=O)N[C@@H](CCSC)C(=O)N[C@@H](C)C(=O)N[C@@H](CS)C(=O)N[C@@H](CC(C)C)C(=O)N[C@H](C(=O)NCC(=O)N[C@@H](CC(C)C)C(=O)O)C(C)C [Epitope M44] (H-IAMACLVGL-OH; N-terminus and C-terminus assumed) in your answer.
> 15 µM
